Test: Half life in human plasma
Type: ADME, cell-free

>  <compound>
CC(C)C[C@H](NC(=O)CNC(=O)[C@H](Cc1ccc(O)cc1)NC(=O)[C@H](CO)NC(=O)[C@H](Cc1c[nH]c2ccccc12)NC(=O)[C@H](Cc1cnc[nH]1)NC(=O)[C@@H]1CCC(=O)N1)C(=O)N[C@@H](CCCNC(=N)N)C(=O)N1CCC[C@H]1C(=O)NCC(N)=O [GONADORELIN]

>  <half-life / min>
3

$$$$

###

Test: Apparent permeability across human Caco2 cells at 200 uM up to 120 mins by LC-MS analysis
Format: ADME, cell-based
Details: Caco-2
Classification field: enter label 1 for Papp at 2 h, 200 µM values not below 2 ×10⁻⁶ cm/s, label 0 for values below it.

>  <compound>
CC(C)C[C@H](NC(=O)CNC(=O)[C@H](Cc1ccc(O)cc1)NC(=O)[C@H](CO)NC(=O)[C@H](Cc1c[nH]c2ccccc12)NC(=O)[C@H](Cc1cnc[nH]1)NC(=O)[C@H](CCC(=O)O)NC(=O)CCC(=O)N[C@@H]1O[C@H](CO)[C@@H](O)[C@H](O)[C@H]1O)C(=O)N[C@@H](CCCNC(=N)N)C(=O)N1CCC[C@H]1C(=O)NCC(N)=O

>  <labelClass>
label 1

$$$$
>  <compound>
CC(C)C[C@H](NC(=O)CNC(=O)[C@H](Cc1ccc(O)cc1)NC(=O)[C@H](CO)NC(=O)[C@H](Cc1c[nH]c2ccccc12)NC(=O)[C@H](Cc1cnc[nH]1)NC(=O)[C@H](CCC(N)=O)NC(=O)CCC(=O)N[C@@H]1O[C@H](CO)[C@H](O)[C@H](O)[C@H]1O)C(=O)N[C@@H](CCCNC(=N)N)C(=O)N1CCC[C@H]1C(=O)NCC(N)=O

>  <labelClass>
label 0

$$$$
>  <compound>
CC(C)C[C@H](NC(=O)CNC(=O)[C@H](Cc1ccc(O)cc1)NC(=O)[C@H](CO)NC(=O)[C@H](Cc1c[nH]c2ccccc12)NC(=O)[C@H](Cc1cnc[nH]1)NC(=O)[C@H](CCC(=O)O)NC(=O)CCC(=O)N[C@@H]1O[C@H](CO)[C@@H](O[C@@H]2O[C@H](CO)[C@H](O)[C@H](O)[C@H]2O)[C@H](O)[C@H]1O)C(=O)N[C@@H](CCCNC(=N)N)C(=O)N1CCC[C@H]1C(=O)NCC(N)=O

>  <labelClass>
label 1

$$$$
>  <compound>
CC(C)C[C@H](NC(=O)CNC(=O)[C@H](Cc1ccc(O)cc1)NC(=O)[C@H](CO)NC(=O)[C@H](Cc1c[nH]c2ccccc12)NC(=O)[C@H](Cc1cnc[nH]1)NC(=O)[C@H](CCC(N)=O)NC(=O)CCC(=O)N[C@@H]1O[C@H](CO)[C@@H](O[C@@H]2O[C@H](CO)[C@H](O)[C@H](O)[C@H]2O)[C@H](O)[C@H]1O)C(=O)N[C@@H](CCCNC(=N)N)C(=O)N1CCC[C@H]1C(=O)NCC(N)=O

>  <labelClass>
label 0

$$$$
>  <compound>
CC(C)C[C@H](NC(=O)CNC(=O)[C@H](Cc1ccc(O)cc1)NC(=O)[C@H](CO)NC(=O)[C@H](Cc1c[nH]c2ccccc12)NC(=O)[C@H](Cc1cnc[nH]1)NC(=O)[C@H](CCC(N)=O)NC(=O)CCC(=O)N[C@@H]1O[C@H](CO)[C@@H](O)[C@H](O)[C@H]1O)C(=O)N[C@@H](CCCNC(=N)N)C(=O)N1CCC[C@H]1C(=O)NCC(N)=O

>  <labelClass>
label 1

$$$$
>  <compound>
CC(C)C[C@H](NC(=O)CNC(=O)[C@H](Cc1ccc(O)cc1)NC(=O)[C@H](CO)NC(=O)[C@H](Cc1c[nH]c2ccccc12)NC(=O)[C@H](Cc1cnc[nH]1)NC(=O)[C@@H]1CCC(=O)N1)C(=O)N[C@@H](CCCNC(=N)N)C(=O)N1CCC[C@H]1C(=O)NCC(N)=O [GONADORELIN]

>  <labelClass>
label 0

$$$$
>  <compound>
CC(C)C[C@H](NC(=O)CNC(=O)[C@H](Cc1ccc(O)cc1)NC(=O)[C@H](CO)NC(=O)[C@H](Cc1c[nH]c2ccccc12)NC(=O)[C@H](Cc1cnc[nH]1)NC(=O)[C@H](CCC(=O)O)NC(=O)CCC(=O)N[C@@H]1O[C@H](CO)[C@H](O)[C@H](O)[C@H]1O)C(=O)N[C@@H](CCCNC(=N)N)C(=O)N1CCC[C@H]1C(=O)NCC(N)=O

>  <labelClass>
label 0

$$$$

###

Experiment: Half life in human Caco2 cell homogenates at 200 uM by LC-MS analysis
Format: ADME, cell-based
Settings: Caco-2 cell homogenates
This section presents compounds with their documented half-life at 200 µM values.
endpointLabel: half-life at 200 µM (min)

>  <compound>
CC(C)C[C@H](NC(=O)CNC(=O)[C@H](Cc1ccc(O)cc1)NC(=O)[C@H](CO)NC(=O)[C@H](Cc1c[nH]c2ccccc12)NC(=O)[C@H](Cc1cnc[nH]1)NC(=O)[C@@H](N)CCC(=O)O)C(=O)N[C@@H](CCCNC(=N)N)C(=O)N1CCC[C@H]1C(=O)NCC(=O)N[C@@H]1O[C@H](C(N)=O)[C@@H](O)[C@H](O)[C@H]1O

>  <endpointLabel>
half-life at 200 µM

>  <recordedResult>
28.4

$$$$
>  <compound>
CC(C)C[C@H](NC(=O)CNC(=O)[C@H](Cc1ccc(O)cc1)NC(=O)[C@H](CO)NC(=O)[C@H](Cc1c[nH]c2ccccc12)NC(=O)[C@H](Cc1cnc[nH]1)NC(=O)[C@@H]1CCC(=O)N1)C(=O)N[C@@H](CCCNC(=N)N)C(=O)N1CCC[C@H]1C(=O)NCC(N)=O [GONADORELIN]

>  <endpointLabel>
half-life at 200 µM

>  <recordedResult>
32.6

$$$$
>  <compound>
CC(C)C[C@H](NC(=O)CNC(=O)[C@H](Cc1ccc(O)cc1)NC(=O)[C@H](CO)NC(=O)[C@H](Cc1c[nH]c2ccccc12)NC(=O)[C@H](Cc1cnc[nH]1)NC(=O)[C@H](CCC(N)=O)NC(=O)CCC(=O)N[C@@H]1O[C@H](CO)[C@H](O)[C@H](O)[C@H]1O)C(=O)N[C@@H](CCCNC(=N)N)C(=O)N1CCC[C@H]1C(=O)NCC(N)=O

>  <endpointLabel>
half-life at 200 µM

>  <recordedResult>
92.2

$$$$

###

Experiment: Half life in human
Assay type: ADME, organism-based
Details: in vivo
endpointLabel: half-life (min)

>  <compound>
CC(C)C[C@H](NC(=O)[C@@H](Cc1c[nH]c2ccccc12)NC(=O)[C@H](Cc1ccc(O)cc1)NC(=O)[C@H](CO)NC(=O)[C@H](Cc1c[nH]c2ccccc12)NC(=O)[C@H](Cc1cnc[nH]1)NC(=O)[C@H](CCC(N)=O)NC(=O)CCC(=O)N[C@@H]1O[C@H](CO)[C@@H](O[C@@H]2O[C@H](CO)[C@H](O)[C@H](O)[C@H]2O)[C@H](O)[C@H]1O)C(=O)N[C@@H](CCCNC(=N)N)C(=O)N1CCC[C@H]1C(=O)NCC(N)=O

>  <recordedResult>
3

$$$$

###

Test: Half life in human Caco2 cell homogenates at 200 uM by LC-MS analysis
Assay type: ADME, cell-based
Details: Caco-2 cell homogenates
The entries below come with measured half-life at 200 µM values attached.

>  <compound>
CC(C)C[C@H](NC(=O)[C@@H](Cc1c[nH]c2ccccc12)NC(=O)[C@H](Cc1ccc(O)cc1)NC(=O)[C@H](CO)NC(=O)[C@H](Cc1c[nH]c2ccccc12)NC(=O)[C@H](Cc1cnc[nH]1)NC(=O)[C@H](CCC(N)=O)NC(=O)CCC(=O)N[C@@H]1O[C@H](CO)[C@@H](O[C@@H]2O[C@H](CO)[C@H](O)[C@H](O)[C@H]2O)[C@H](O)[C@H]1O)C(=O)N[C@@H](CCCNC(=N)N)C(=O)N1CCC[C@H]1C(=O)NCC(N)=O

>  <half-life at 200 µM [h]>
2.21

$$$$
>  <compound>
CC(C)C[C@H](NC(=O)[C@@H](Cc1c[nH]c2ccccc12)NC(=O)[C@H](Cc1ccc(O)cc1)NC(=O)[C@H](CO)NC(=O)[C@H](Cc1c[nH]c2ccccc12)NC(=O)[C@H](Cc1c[nH]cn1)NC(=O)[C@@H]1CCC(=O)N1)C(=O)N[C@@H](CCCNC(=N)N)C(=O)N1CCC[C@H]1C(=O)NCC(N)=O

>  <half-life at 200 µM [h]>
3.09

$$$$
>  <compound>
CC(C)C[C@H](NC(=O)CNC(=O)[C@H](Cc1ccc(O)cc1)NC(=O)[C@H](CO)NC(=O)[C@H](Cc1c[nH]c2ccccc12)NC(=O)[C@H](Cc1cnc[nH]1)NC(=O)[C@H](CCC(=O)O)NC(=O)CCC(=O)N[C@@H]1O[C@H](CO)[C@H](O)[C@H](O)[C@H]1O)C(=O)N[C@@H](CCCNC(=N)N)C(=O)N1CCC[C@H]1C(=O)NCC(N)=O

>  <half-life at 200 µM [h]>
0.85

$$$$
>  <compound>
CC(C)C[C@H](NC(=O)CNC(=O)[C@H](Cc1ccc(O)cc1)NC(=O)[C@H](CO)NC(=O)[C@H](Cc1c[nH]c2ccccc12)NC(=O)[C@H](Cc1cnc[nH]1)NC(=O)[C@H](CCC(N)=O)NC(=O)CCC(=O)N[C@@H]1O[C@H](CO)[C@@H](O)[C@H](O)[C@H]1O)C(=O)N[C@@H](CCCNC(=N)N)C(=O)N1CCC[C@H]1C(=O)NCC(N)=O

>  <half-life at 200 µM [h]>
1.23

$$$$
>  <compound>
CC(C)C[C@H](NC(=O)CNC(=O)[C@H](Cc1ccc(O)cc1)NC(=O)[C@H](CO)NC(=O)[C@H](Cc1c[nH]c2ccccc12)NC(=O)[C@H](Cc1cnc[nH]1)NC(=O)[C@H](CCC(N)=O)NC(=O)CCC(=O)N[C@@H]1O[C@H](CO)[C@@H](O[C@@H]2O[C@H](CO)[C@H](O)[C@H](O)[C@H]2O)[C@H](O)[C@H]1O)C(=O)N[C@@H](CCCNC(=N)N)C(=O)N1CCC[C@H]1C(=O)NCC(N)=O

>  <half-life at 200 µM [h]>
2.22

$$$$
>  <compound>
CC(C)C[C@H](NC(=O)CNC(=O)[C@H](Cc1ccc(O)cc1)NC(=O)[C@H](CO)NC(=O)[C@H](Cc1c[nH]c2ccccc12)NC(=O)[C@H](Cc1cnc[nH]1)NC(=O)[C@@H](N)CCC(=O)O)C(=O)N[C@@H](CCCNC(=N)N)C(=O)N1CCC[C@H]1C(=O)NCC(N)=O

>  <half-life at 200 µM [h]>
0.507

$$$$
>  <compound>
CC(C)C[C@H](NC(=O)CNC(=O)[C@H](Cc1ccc(O)cc1)NC(=O)[C@H](CO)NC(=O)[C@H](Cc1c[nH]c2ccccc12)NC(=O)[C@H](Cc1cnc[nH]1)NC(=O)[C@H](CCC(=O)O)NC(=O)CCC(=O)N[C@@H]1O[C@H](CO)[C@@H](O[C@@H]2O[C@H](CO)[C@H](O)[C@H](O)[C@H]2O)[C@H](O)[C@H]1O)C(=O)N[C@@H](CCCNC(=N)N)C(=O)N1CCC[C@H]1C(=O)NCC(N)=O

>  <half-life at 200 µM [h]>
1.28

$$$$
>  <compound>
CC(C)C[C@H](NC(=O)CNC(=O)[C@H](Cc1ccc(O)cc1)NC(=O)[C@H](CO)NC(=O)[C@H](Cc1c[nH]c2ccccc12)NC(=O)[C@H](Cc1cnc[nH]1)NC(=O)[C@H](CCC(=O)O)NC(=O)CCC(=O)N[C@@H]1O[C@H](CO)[C@@H](O)[C@H](O)[C@H]1O)C(=O)N[C@@H](CCCNC(=N)N)C(=O)N1CCC[C@H]1C(=O)NCC(N)=O

>  <half-life at 200 µM [h]>
0.945

$$$$
